Biological target: T1, full-length beta-Catenin (Uniprot ID P35222) (Homo sapiens (Human), UniProt P35222 2-781)
T1 construct: Used at 10 nM in the FP probe solution as 'full-length'; Also used here for the endogenous beta-catenin of the DLD1 TCF/LEF reporter cells (functional rows); also called bCat; B-Catenin
T1 sequence: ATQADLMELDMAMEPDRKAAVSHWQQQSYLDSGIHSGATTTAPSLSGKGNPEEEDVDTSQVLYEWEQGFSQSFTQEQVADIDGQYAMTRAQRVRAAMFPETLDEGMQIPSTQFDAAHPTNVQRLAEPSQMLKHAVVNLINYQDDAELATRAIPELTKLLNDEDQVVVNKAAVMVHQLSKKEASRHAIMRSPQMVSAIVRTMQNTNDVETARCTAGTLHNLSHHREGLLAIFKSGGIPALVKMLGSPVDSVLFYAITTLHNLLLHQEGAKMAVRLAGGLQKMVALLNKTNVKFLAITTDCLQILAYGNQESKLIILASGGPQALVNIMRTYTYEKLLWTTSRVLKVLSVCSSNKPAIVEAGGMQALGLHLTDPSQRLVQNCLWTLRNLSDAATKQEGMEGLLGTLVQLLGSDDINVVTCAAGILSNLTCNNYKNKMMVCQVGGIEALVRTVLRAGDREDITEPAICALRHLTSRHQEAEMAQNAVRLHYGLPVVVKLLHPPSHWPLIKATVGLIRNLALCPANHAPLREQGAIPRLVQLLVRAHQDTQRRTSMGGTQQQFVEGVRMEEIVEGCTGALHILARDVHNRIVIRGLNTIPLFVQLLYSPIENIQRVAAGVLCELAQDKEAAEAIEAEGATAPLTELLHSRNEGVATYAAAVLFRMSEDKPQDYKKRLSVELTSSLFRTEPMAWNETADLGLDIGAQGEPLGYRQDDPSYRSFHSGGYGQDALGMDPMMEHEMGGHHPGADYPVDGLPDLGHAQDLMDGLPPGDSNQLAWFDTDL
Experiment: fluorescence polarization competition; 10 nM full-length beta-catenin + 10 nM 5FAM-TCF4 10-53 as competitor probe
Starred links: 1 amine or outer side, 2 acyl side, 3 side chain; linkers in the order of their positions; H or OH if unused. Positions of bridges follow the written chain, without caps; N, C: chain ends. Non-standard residues stand in square brackets, D forms with d. Primed or numbered codes have the meaning given here. PyrS2″ = (S)-3-amino-1-((pent-4-en-1-yloxy)carbonyl)pyrrolidine-3-carboxylic acid (stapling residue), C=CCCCOC(=O)N1CC[C@@](N[*:1])(C(=O)[*:2])C1; B5(16) = 2-amino-2-(pent-4-en-1-yl)hept-6-enoic acid = 2,2-bis(4-pentenyl)glycine (stitching residue), C=CCCCC(CCCC=C)(N[*:1])C(=O)[*:2]; B5(4) = 2,2-bis(4-pentenyl)glycine = 2-amino-2-(pent-4-en-1-yl)hept-6-enoic acid (stitching residue), C=CCCCC(CCCC=C)(N[*:1])C(=O)[*:2]; Phe(2-Cl) = N[C@@H](Cc1ccccc1Cl)C(=O)O; Bta = N[C@@H](Cc1csc2ccccc12)C(=O)O; αAllylPro = C=CC[C@@]1(C(=O)O)CCCN1
Consider the following binders; for each one, report its EC50.
// return the numeric value with its unit appended

query: Read off the recorded EC50 for Ac-[αAllylPro]DF[B5(16)]DDAAFN[PyrS2″][Phe(2-Cl)][Bta]Q-NH2 (staple 1-4, 4-11, Stapled (stitched) peptide composition) [I-1041]
result: 8 nM

query: Read off the recorded EC50 for Ac-[αAllylPro]DF[B5(16)]DDAAFS[PyrS2″][Phe(2-Cl)][Bta]Q-NH2 (staple 1-4, 4-11, Stapled (stitched) peptide composition) [I-1045]
result: 5 nM

query: Read off the recorded EC50 for Ac-[αAllylPro]DF[B5(4)]DDAAFN[PyrS2″][Phe(2-Cl)][Bta]S-NH2 (staple 1-4, 4-11, Stapled (stitched) peptide composition) [I-1047]
result: 5 nM

query: Read off the recorded EC50 for Ac-[αAllylPro]DF[B5(16)]DDAAFT[PyrS2″][Phe(2-Cl)][Bta]Q-NH2 (staple 1-4, 4-11, Stapled (stitched) peptide composition) [I-1043]
result: 12 nM

query: Read off the recorded EC50 for Ac-[αAllylPro]DF[B5(4)]DDAAFT[PyrS2″][Phe(2-Cl)][Bta]S-NH2 (staple 1-4, 4-11, Stapled (stitched) peptide composition) [I-1049]
result: 6 nM

Provenance of the data: patent US20240116985A1
